Origin of values: paper PMC11661448

B1: TTC7B-FAM126A (1 to 308) mutant TTC7B:W699A [human] / EFR3A (721 to 791) [human] (parent)
chain 1: MATKKAGSRLETEIERCRSECQWERIPELVKQLSAKLIANDDMAELLLGESKLEQYLKEHPLRQGASPRGPKPQLTEVRKHLTAALDRGNLKSEFLQESNLIMAKLNYVEGDYKEALNIYARVGLDDLPLTAVPPYRLRVIAEAYATKGLCLEKLPISSSTSNLHVDREQDVITCYEKAGDIALLYLQEIERVILSNIQNRSPKPGPAPHDQELGFFLETGLQRAHVLYFKNGNLTRGVGRFRELLRAVETRTTQNLRMTIARQLAEILLRGMCEQSYWNPLEDPPCQSPLDDPLRKGANTKTYTLTRRARVYSGENIFCPQENTEEALLLLLISESMANRDAVLSRIPEHKSDRLISLQSASVVYDLLTIALGRRGQYEMLSECLERAMKFAFEEFHLWYQFALSLMAAGKSARAVKVLKECIRLKPDDATIPLLAAKLCMGSLHWLEEAEKFAKTVVDVGEKTSEFKAKGYLALGLTYSLQATDASLRGMQEVLQRKALLAFQRAHSLSPTDHQAAFYLALQLAISRQIPEALGYVRQALQLQGDDANSLHLLALLLSAQKHYHDALNIIDMALSEYPENFILLFSKVKLQSLCRGPDEALLTCKHMLQIWKSCYNLTNPSDSGRGSSLLDRTIADRRQLNTITLPDFSDPETGSVHATSVAASRVEQALSEVASSLQSSAPKQGPLHPWMTLAQIWLHAAEVYIGIGKPAEATACTQEAANLFPMSHNVLYMRGQIAELRGSMDEARRWYEEALAISPTHVKSMQRLALILHQLGRYSLAEKILRDAVQVNSTAHEVWNGLGEVLQAQGNDAAATECFLTALELEASSPAVPFTIIPRVL
chain 2: MFTSEKGVVEEWLSEFKTLPETSLPNYATNLKDKSSLVSSLYKVIQEPQSELLEPVCHQLFEFYRSGEEQLLQFTLQFLPELIWCYLAVSASRNVHSSGCIEALLLGVYNLEIVDKQGHTKVLSFTIPSLSKPSVYHEPSSIGSMALTESALSQHGLSKVVYSGPHPQREMLTAQNRFEVLTFLLLCYNAALTYMPSVSLQSLCQICSRICVCGYPRQHVRKYKGISSRIPVSSGFMVQMLTGIYFAFYNGEWDLAQKALDDIIYRAQLELYPEPLLVANAIKASLPHGPMKSNKEGTRCIQVEITPT
chain 3: SNTEEITFEALKKAIDTSGMEEQEKEKRRLVIEKFQKAPFEEIAAQCESKANLLHDRLAQILELTIRPPPS

- Variants of: B1
- assay-notes: BLI
- test-conditions: with EFR3A (721 to 791) [human]; His-EFR3A loaded on the anti-penta-His tip at 200 nM, TTC7B-FAM126A at 500 nM; 25°C; 20 mM HEPES (pH 7.5), 150 mM NaCl; read off a plot
readout-type: response (nm)

Below, 3 variants whose answers are already recorded.
Query string: Dear colleague, I am looking for the recorded response of the following variant: chain 1 W699A
Result string: 1.4

Query string: Dear colleague, I am looking for the recorded response of the following variant: chain 1 R539E
Result string: 1.2

Query string: Dear colleague, I am looking for the recorded response of the following variant: chain 2 L106F
Result string: 1.1

[1] chain 1 L610A
[2] chain 2 H58E
Query string: Between these two entries, 1 and 2 , state which has the higher response. Answer by stating the label of the chosen item.
Result string: 2
